assay: PhoP regulon inhibitors, Salmonella typhi PhoP promoter GFP reporter, confirmatory (AID 1850); settings: fluorescence, 4 h, at 50 µM, active compounds read high;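 further: 0% = induced wells with vehicle and 100% = uninduced wells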
The campaign covered roughly 310,000 compounds. About 1,000 (0.32%) were called active. The list is a sample of the results. Measured potencies and affinities stand elsewhere.
MEASUREMENT_TYPE: inhibition (%)
Express your answer in %, writing the number without its unit.

Per the records, this compound ( CN1CCC(=C2c3ccccc3CCc3sccc32)CC1 ) has inhibition equal to 4.53

Notebook: Cc1cc([N+](=O)[O-])nn1CC(=O)N/N=C/c1ccccc1Br , inhibition read as 13.2

Documented inhibition of c1ccc(CSc2ccc(-c3ccco3)nn2)cc1 : 9.52

O=C(NC(=S)NNC(=O)c1ccccc1O)c1cccs1 has a reported inhibition of 7.92

Reported inhibition for COc1ccccc1OCCC(=O)OCC(=O)c1[nH]c(C)c(C(C)=O)c1C was 10.1

inhibition measured on O=C(N/N=C/C=C/c1ccc([N+](=O)[O-])cc1)c1cccs1 = 6.74

inhibition in this record for O=C(Cn1cncn1)N/N=C/c1ccccc1Cl : -13.1

Form field inhibition, entry COc1ccc(C(=O)NNC(=S)NC(=O)/C=C/c2cccs2)cc1 : 12

Record COC(=O)CN1C2=NCCCN2c2ccccc21 , field inhibition: 6.91

Looking up Oc1ccc2ccccc2c1CNc1ccc(Br)cn1 , I see its inhibition listed as -4.93

Lab note: measured inhibition of NC(=O)N/N=C/c1ccc([N+](=O)[O-])o1 was 1.06

Entry COc1ccc(CCNC(=O)CN(c2cccc([N+](=O)[O-])c2)S(C)(=O)=O)cc1 ; inhibition = -12

Reported inhibition of CCCCCc1ccc(CC(=O)O)cc1 : 7.27

For this compound ( NC(=S)N/N=C/c1c(O)ccc2ccccc12 ), measured inhibition is -1.9

inhibition reading for O=C(N/N=C\c1c(O)ccc2ccccc12)c1ccc(O)cc1 : -4.79

// field: inhibition; key: O=C(NC(=S)NNC(=O)c1cc2ccccc2cc1O)c1ccco1 ; value = -70.1

get_value(item= O=C(O)c1cn(-c2ccc(F)c(F)c2)c2c(F)c(F)c(F)c(F)c2c1=O , readout=inhibition) returns -8.9

For this compound ( Cc1cc(N(CCO)CCO)ccc1N=Nc1cc(F)ccc1F ), measured inhibition is 22.3

Measured inhibition of CCOc1cc(C(=O)Nc2ccccc2N2CCOCC2)ccc1OCC(=O)N1CCCCC1 : -2.04

Given item O=C(N/N=C/c1ccc([N+](=O)[O-])o1)c1ccc2c(c1)OCO2 , the value recorded as its inhibition is 3.54

Memo: Clc1ccc2c(c1)CCc1cccnc1C2=C1CCNCC1 , reported inhibition: 9.72

For this compound ( CCN(CC)CCCNC(=O)c1c(O)c2cc(F)cc3c2n(c1=O)C(C)CC3 (stereo unspecified) ), measured inhibition is -12.5

Entry CNC(=O)CC1C(=O)N(c2ccc(Cl)cc2)C(=S)N1CCc1ccc(OC)c(OC)c1 (stereo unspecified) , inhibition reported as -0.64

inhibition recorded for this compound, O=C(Cn1cncn1)N/N=C/c1cccc2ccccc12 , is -7.61

Note to self: inhibition recorded for Cc1cc([N+](=O)[O-])nn1CC(=O)N/N=C/c1ccc(O)cc1O was 18.8

# compound COc1ccc(N(CN2C(=O)c3ccccc3C2=O)C(=O)COc2ccc(Cl)cc2Cl)cc1 ; its inhibition = -5.69

Recorded inhibition (compound Cc1ccc(NS(=O)(=O)c2ccc(C(=O)N3CC(C)CC(C)C3)cc2)cc1 (stereo unspecified) ): -0.14

For record COc1cccc(NS(=O)(=O)c2nc3nc(C)cc(C)n3n2)c1 the listed inhibition is 5.81

Per the records, this compound ( COCCCn1c(SCC(=O)NC2CCCC2)nnc1-c1cccs1 ) has inhibition equal to 7.9

O=C(ONC1=NCCCCC1)c1cccc([N+](=O)[O-])c1 has a reported inhibition of -5.28

So for CC1CCN(c2c(NCC3CCC(C(=O)NCc4ccccc4)CC3)c(=O)c2=O)CC1 (stereo unspecified) , the logged inhibition turned out to be -9.12

Reported inhibition for COc1ccc(-c2noc(N3CCCC(C(=O)Nc4ccccc4F)C3)n2)cc1 (stereo unspecified) was 4.79

Summary for this compound, O=C(CNc1cccc(S(=O)(=O)N2CCOCC2)c1)N1CCc2ccccc21 : inhibition is -12.4

Recorded result, S=C(NC1CC2CCC1C2)N1CCN(c2cccc(Cl)c2)CC1 (stereo unspecified) , inhibition: 15.8

So, O=S(=O)(c1ccc(F)c(F)c1F)N1CCN(C(=S)NC2CC3CCC2C3)CC1 (stereo unspecified) ? Its inhibition was 3.26

Reported inhibition of O=C(NNC(=O)c1cccs1)c1ccco1 : 0.32

Short answer for O=C(CCn1cnc(-c2ccccc2)c1-c1ccccc1)N/N=C/c1ccccc1O : inhibition was -2.92

# inhibition of O=C(N/N=C/C=C/c1ccccc1[N+](=O)[O-])c1cccs1 = -2.89

Notebook: CCC(=O)NC(=S)Nc1ccc(NC(=O)c2ccco2)c(OC)c1 , inhibition read as -4.57

For this compound ( CCn1c(/N=C/c2ccccc2O)nc2ccccc21 ), measured inhibition is -0.93

Summary for this compound, CS(=O)(=O)c1ccc(Cl)c(C(=O)NC2CCSc3ccccc32)c1 (stereo unspecified) : inhibition is 12.6

// field: inhibition; key: O=C(NC(=S)Nc1ccc(NC(=O)c2cccs2)cc1)c1ccco1 ; value = -1.46

Note to self: inhibition recorded for CC1CCCN(C(=S)NCc2ccccc2)C1 (stereo unspecified) was -5.12

The recorded inhibition for COc1ccc(CNC(=O)c2cc(COc3c(F)cccc3F)on2)cc1OC is -2.31

Entry under test: Fc1ccc(CSc2ccc(-c3ccco3)nn2)cc1 . Its inhibition was 6.93

For record Cc1n[nH]c(C)c1CCNC(=O)C1CCC(=O)N(CCc2cccc(F)c2)C1 (stereo unspecified) the listed inhibition is -2.89

* * *

I'd appreciate it if you could supply inhibition values for the items below.
assay: PhoP regulon inhibitors, Salmonella typhi PhoP promoter GFP reporter, confirmatory (AID 1850); details: fluorescence, 4 h, at 50 µM, active compounds read high;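 further: 0% = induced wells with vehicle and 100% = uninduced wells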
Hit rate of the full screen: of about 310,000 compounds, about 1,000 (0.32%) were called active. Only a sample is shown. Results with a measured potency or affinity are listed apart.

Value of measured inhibition for the entry OCC1(Cc2ccc(Cl)cc2)CCN(Cc2ccc(F)c(F)c2)CC1 : 1.77% (inactive)

get_value(item= CCn1cc(C(=O)NCCCOC(C)C)c2cc(OC)c(OC)cc2c1=O , readout=inhibition) returns 2.36% (inactive)

The reported inhibition of the compound Cc1ccccc1NC1=NC2(CCCC2)N=C(N)N1 was -0.71% (inactive)

Entry CCOc1ccc(-c2cc(C)[n+](CCN3CCOCC3)c(-c3ccc(OCC)cc3)c2)cc1 ; inhibition = 8.34% (inactive)

Entry CC(C)OCCCNC(=O)c1ccc(NC(=O)C2=CSCCO2)cc1 ; inhibition = -8.42% (inactive)

Per the records, this compound ( CCOC(=O)c1ccccc1NC(=O)CSc1nc2ccccc2n1CC(=O)N1CCCC1 ) has inhibition equal to -7.2% (inactive)

In plain terms, CC(C)c1ccc(NC(=O)C2CCN(S(C)(=O)=O)CC2)cc1 has a documented inhibition of 9.77% (inactive)

Notebook: Oc1ccc(CN2CCc3ccccc3C2)c2cccnc12 , inhibition read as -5.43% (inactive)

// inhibition lookup, compound = CCCC[C@@H]1C[C@H]1[C@@H](NC(=O)c1ccco1)c1ccc(C(=O)OC)cc1 , result: -1.55% (inactive)

Consider Cc1ccc(NC2=NC3(CCCCC3)N=C(N)N2)c(C)c1 . Its measured inhibition is 8.94% (inactive)

// COC(=O)C(Cc1ccccc1)N1CCS(=O)(=O)CC1 (stereo not drawn) : inhibition value = 9.2% (inactive)

Reported inhibition ( COc1ccc(OCC(=O)Nn2c(-c3cccc(OC)c3)nc3ccccc3c2=O)cc1 ) = -2.54% (inactive)

Kindly note the recorded inhibition for CCOC(=O)N1CCC(N(CCN(C)C)C(=S)Nc2cc(C)ccc2C)CC1 , which is 7.56% (inactive)

Data point: CC(C)Nc1cc(C(C)(C)C)nc2c(-c3ccccc3)cnn12 ; inhibition = 0.99% (inactive)

Value of inhibition reported for the compound COc1ccccc1N1CCN(Cc2ccc(OC)c(OC)c2OC)CC1 is 5.73% (inactive)

The reported value for Cc1ccc2nc3c(c(Nc4cccc(O)c4)c2c1)CCC3 in terms of inhibition is 7.27% (inactive)

Quick note, inhibition for CCOc1ncccc1C(=O)OCCN1C(=O)c2ccccc2C1=O landed at 7.33% (inactive)

Recorded result, CC(C)(C)c1cc(NCc2ccccn2)n2ncc(-c3ccc(Cl)cc3)c2n1 , inhibition: -9.09% (inactive)

Per the records, this compound ( CC(=O)c1cccc(Nc2c3c(nc4ccccc24)CCC3)c1 ) has inhibition equal to 12.8% (inactive)

Just so you know, measured inhibition for CC(C)(C)c1cc(NCCCn2ccnc2)n2ncc(-c3ccccc3)c2n1 came out at 12.3% (inactive)

Sample CC(NCC(O)COC1CCC(C(C)(C)C)CC1)c1ccccc1 (stereo not drawn) ; inhibition observed: 0.36% (inactive)

inhibition measured on Cc1onc(-c2ccc(Cl)cc2)c1-c1ccnn1S(=O)(=O)c1cccc(C(F)(F)F)c1 = -8.24% (inactive)

The recorded inhibition for Cc1onc(-c2ccccc2)c1C(=O)N1CCC(CO)(Cc2ccccc2)CC1 is -9.9% (inactive)
